test system: Rattus norvegicus; experiment: Dose normalized AUC in rat at 1 mg/kg, iv and 5 mg/kg, po; type: ADME, organism-based; details: in vivo
readoutType: AUC/dose (ng·h/mL/mg/kg)

INSERT INTO results (samplesmiles, readouttype, numericvalue) VALUES
  ('C#Cc1ccc(Nc2c(C(=O)NOCCO)c3c(n2C)C(=O)CC3)c(F)c1', 'AUC/dose', 512),
  ('CC(=O)c1cc(C(=O)NOCCO)c(Nc2ccc(I)cc2F)n1C', 'AUC/dose', 144),
  ('C#Cc1ccc(Nc2c(C(=O)NOCCO)c3c(n2C)C(=O)CCC3)c(F)c1', 'AUC/dose', 1670);

I. Cc1c(Nc2ccc(I)cc2F)c(C(=O)NOCCO)c2n(c1=O)CCC2
II. Cn1c(Nc2ccc(I)cc2F)c(C(=O)NOC[C@H](O)CO)c2c1C(=O)CCC2
Request: Of the pair I and II , name the member with the lesser recorded AUC/dose. Answer by stating the label of the chosen item.
Result: II
(II: 88 ng·h/mL/mg/kg, I: 204 ng·h/mL/mg/kg)

----------
test: Half life in human liver microsomes; assay type: ADME, Microsome
readoutType: half-life (h)

Example entries begin here.
INSERT INTO results (samplesmiles, readouttype, numericvalue) VALUES
  ('O=C(NOCCO)c1c(Nc2ccc(I)cc2F)c(F)c(=O)n2c1CCCC2', 'half-life', 1.85),
  ('C#Cc1ccc(Nc2c(C(=O)NOCCO)c3c(n2C)C(=O)CC3)c(F)c1', 'half-life', 1.78);

P. O=C(NOCCO)c1c(Nc2ccc(I)cc2F)cc(=O)n2c1CCC2
Q. O=C(NOCCO)c1c(Nc2ccc(I)cc2F)c(Cl)c(=O)n2c1CCC2
Request: Larger number for half-life: P , or Q ? Answer by stating the label of the chosen item.
Result: P
(P: 2.23 h, Q: 0.783 h)

----------
experiment: Half life in rat liver microsomes; assay type: ADME, Microsome
readoutType: half-life (min)

Example entries begin here.
INSERT INTO assay_data (samplesmiles, numericvalue) VALUES
  ('Cn1c(Nc2ccc(Br)cc2F)c(C(=O)NOCCO)c2c1C(=O)CCC2', 20),
  ('Cn1c(Nc2ccc(I)cc2F)c(C(=O)NOC[C@@H](O)CO)c2c1C(=O)CCC2', 36),
  ('Cn1c(Nc2ccc(I)cc2F)c(C(=O)NOCCO)c2c1C(=O)CCC2', 5.5);

a. Cn1c(Nc2ccc(I)cc2F)c(C(=O)NOC[C@H](O)CO)c2c1C(=O)CCC2
b. O=C(NOCCO)c1c(Nc2ccc(I)cc2F)c(F)c(=O)n2c1CCCC2
c. O=C(NOCCO)c1c(Nc2ccc(I)cc2F)cc(=O)n2c1CCC2
d. O=C(NOCCO)c1c(Nc2ccc(I)cc2F)c(F)c(=O)n2c1CCC2
e. Cn1c(Nc2ccc(I)cc2F)c(C(=O)NOCCO)c2c1C(=O)CC2
Request: Ordering criterion: half-life; begin with the maximum. Provide your answer as the labels ordered per the instruction.
Result: d, c, b, a, e

----------
target: Protein kinase C alpha type (Homo sapiens); assay: Inhibition of PKCalpha at 10 uM
Activity calls are given as the source filed them. The calls are words filed in the database; no cut-off is given here.
readoutType: inhibition

Example entries begin here.
INSERT INTO results (samplesmiles, testedsystem, result) VALUES
  ('C#Cc1ccc(Nc2c(C(=O)NOCCO)c3c(n2C)C(=O)CCC3)c(F)c1', 'Protein kinase C alpha type (Homo sapiens)', 'inactive'),
  ('O=C(NOC[C@@H](O)CO)c1c(Nc2ccc(I)cc2F)c(F)c(=O)n2c1CCC2', 'Protein kinase C alpha type (Homo sapiens)', 'inactive'),
  ('C#Cc1ccc(Nc2c(C(=O)NOCCO)c3c(n2C)C(=O)CC3)c(F)c1', 'Protein kinase C alpha type (Homo sapiens)', 'inactive'),
  ('Cc1c(Nc2ccc(I)cc2F)c(C(=O)NOCCO)c2n(c1=O)CCC2', 'Protein kinase C alpha type (Homo sapiens)', 'inactive'),
  ('Cn1c(Nc2ccc(I)cc2F)c(C(=O)NOC[C@H](O)CO)c2c1C(=O)CCC2', 'Protein kinase C alpha type (Homo sapiens)', 'inactive');

--- query ---
Value of inhibition reported for the compound O=C(NOCCO)c1c(Nc2ccc(I)cc2F)c(F)c(=O)n2c1CCC2 is inactive
